Values compiled from the array DNA melting data of Ke et al. (doi:10.1101/2024.01.08.574731).

sequences and their reported folding enthalpy
Assay: folding enthalpy; higher = less favourable; fluorescence melt of hairpins on a sequencing array, two-state fit
Details: sodium 0.088 M
Please state the figure in kcal/mol; there is no need to write the unit.

Look over these answered cases.
> print(dat)
                        polymer.sequence     endpoint.name  units.label  meas.value
1  GCCGGGCGAAAGCACCGC ((.(.((....)).).))  folding enthalpy     kcal/mol       -14.1
2      GATCTGTGTTCAGATC ((((((....))))))  folding enthalpy     kcal/mol       -34.2
3  GATAGCGAAAGCTCTATC ((((((....)))..)))  folding enthalpy     kcal/mol       -11.1

If you can, please state the reported folding enthalpy value of GCGGGGCGAAAGCCGGGC ((..(((....)))..)) .
-14.8

Give its folding enthalpy value. Item: CCCATGAAAATGGG (((((....)))))
-20.9

Any idea what its folding enthalpy is? The sequence is GGAGTTGGAAACAACCCC ((.((((....)))).))
-22.8

Find the recorded folding enthalpy belonging to GCTTGGCGAAAGCAACGC ((.(.((....)).).)) and report it.
-10.5

Fill in: folding enthalpy of GACGAGCGAAAGCTAGTC (((.(((....))).))) is ___
-31

Form field: reported folding enthalpy of GGTAATCGAAAGATCACC (((.(((....))).)))
-25.6
